Data origin, for the record: paper PMC12040169

test: in vitro; details: human, hela cells, % viability
So I've got a bunch of compounds here, and I need their viability at 28.5 h, 10 µM values.
Report as a plain number; the unit % is understood.

input: // query viability at 28.5 h, 10 µM value for entry "c1coc(CNc2c(-c3ccco3)nc3cnccn23)c1"
output: 103

input: Same again, this time with O=C(O)CC1S/C(=N/N=C/c2ccc(-c3cccc([N+](=O)[O-])c3)o2)NC1=O (centres unmarked)
output: 113

input: Same again, this time with "COCc1cc2n[nH]c(=O)n2c(-c2ccccc2)n1"
output: 98.3

input: Same again, this time with CC(C)NCC(O)COCc1ccc(Cl)cc1 (centres unmarked) [CBK261406C]
output: 108

input: Same again, this time with "Cn1nc(C2CCN(C(=O)CCc3ccccc3)CC2)c2cccnc21"
output: 103

input: Same again, this time with "COC(=O)[C@@H]1Cc2ncn(C)c2CN1C(=O)c1ccc(C#N)cc1"
output: 76.5

input: Same again, this time with CC(CC(=O)NC(c1ccc(F)cc1)c1nccn1C)n1cccn1 (centres unmarked)
output: 93.7

input: Same again, this time with "CCOC(=O)c1cnc2c(C)cc(Cl)cc2c1NCCN(C)C"
output: 90.7

input: Same again, this time with O=C(Cc1c[nH]cn1)N1CCC2(CCN(Cc3ccccc3)C2)C1 (centres unmarked)
output: 91

input: Same again, this time with "COc1ccc(-n2c(SCCc3ccccc3)nnc2-c2ccncc2)cc1"
output: 85.3

input: Same again, this time with "O=C(O)CCCn1cc(NC(=O)c2c(F)cccc2F)cn1"
output: 86.6

input: Same again, this time with "CCOc1ccc(CC(=O)Nc2ncccc2OCCCC#N)cc1"
output: 90.3

input: Same again, this time with CC1(C)Cc2nc(N3CCOCC3)ncc2C(NC(=O)C2CCCC2)C1 (centres unmarked)
output: 115

input: Same again, this time with "COc1ccc(S(=O)(=O)Nc2c(C(=O)O)sc3ncccc23)cc1OC"
output: 87.3

input: Same again, this time with "COc1ccc(-c2nnc(SCc3cc(=O)oc4cc(C)ccc34)n2CC(C)C)cc1"
output: 81.3

input: Same again, this time with "O=C(O)CCC(=O)NNC(=O)c1ccccc1[N+](=O)[O-]"
output: 95.8

input: Same again, this time with Oc1cccc(C(O)CNCc2ccc(OCc3ccc(Cl)cc3Cl)cc2)c1 (centres unmarked) [CBK267621C]
output: 93

input: Same again, this time with "O=C(Nc1ccc([C@@H](O)[C@H]2COCC(=O)N2Cc2ccccc2F)cc1)c1cnccn1"
output: 83.2

input: Same again, this time with "O=C(Nc1nnc(-c2ccc3c(c2)OCCO3)o1)c1ccccc1F"
output: 112

input: Same again, this time with "Cc1cc2c(o1)c1cnn(CC(=O)N3CCCC3)c(=O)c1n2C"
output: 100

input: Same again, this time with "Clc1ccc(COc2cc(N3CCCN(CC4CC4)CC3)ncn2)cc1Cl"
output: 90.8

input: Same again, this time with "Cc1nnc(-c2cc(CC(C)C)n(-c3cccc(C(=O)N4CC=CCC4)c3)n2)o1"
output: 91.6

input: Same again, this time with "Cc1cccc(C2(O)CCN(C(=O)CCCc3ccncc3)CC2)c1"
output: 111

input: Same again, this time with "O=C1c2ccccc2C(=O)N1CN(Cc1ccc2c(c1)OCO2)CN1C(=O)c2ccccc2C1=O"
output: 107

input: Same again, this time with "CCc1cc(CNC(=O)c2cc(C)nc3c(C)cccc23)on1"
output: 108

input: Same again, this time with "CCN1CCN(Cc2c(C(F)(F)F)[nH]c3ncccc23)CC1"
output: 95.2

input: Same again, this time with "O=C(OCc1ccccc1)N1CCC(C(=O)N(CCc2ccccc2)Cc2ccccc2)CC1"
output: 92.5

input: Same again, this time with "O=C(Nc1ccnn1Cc1cccs1)N1Cc2cnn(CCO)c2C1"
output: 89.7

input: Same again, this time with "Cc1n[nH]c(O)c1C(c1ccc(OC(=O)c2c(F)cccc2F)cc1)c1c(C)n[nH]c1O"
output: 101

input: Same again, this time with "CCCN(CCC)C(=O)c1ccc(-n2nc(C(=O)OCC)c(Br)c2C)cc1"
output: 109

input: Same again, this time with COc1ccc(CCNC(=S)NC2CC3CCC2C3)cc1OC (centres unmarked)
output: 90.8

input: Same again, this time with "O=C(NCc1ccc(-c2csnn2)cc1)c1c(F)cccc1F"
output: 86

input: Same again, this time with "CC(C)/C=N/N=C1\NC(=O)CS1"
output: 90.7

input: Same again, this time with Cc1ccc(N(C(C)C(=O)Nc2ccccc2C(F)(F)F)S(C)(=O)=O)cc1 (centres unmarked)
output: 84.5

input: Same again, this time with O=C(O)C1CC(=O)N(c2ccc(Br)cc2)C1 (centres unmarked)
output: 87.7

input: Same again, this time with "CC(=O)c1sc2nc(-c3ccccc3)nc(C)c2c1N"
output: 90.5

input: Same again, this time with O=C(O)CCSC1CC(=O)N(c2ccc(F)cc2)C1=O (centres unmarked)
output: 89.9

input: Same again, this time with "c1ccc(-c2ccno2)c(OCc2ccc(-c3nccnc3-c3nnn[nH]3)cc2)c1"
output: 93.6
